- target_system: T1, Macaca fascicularis IL2Rγ extracellular domain expressed with a C-terminal myc-myc-hexahistidine tag (Macaca fascicularis)
- T1 construct: also called mfIL-2Rg-MMH; mfIL-2RG-MMH
- T1 chain: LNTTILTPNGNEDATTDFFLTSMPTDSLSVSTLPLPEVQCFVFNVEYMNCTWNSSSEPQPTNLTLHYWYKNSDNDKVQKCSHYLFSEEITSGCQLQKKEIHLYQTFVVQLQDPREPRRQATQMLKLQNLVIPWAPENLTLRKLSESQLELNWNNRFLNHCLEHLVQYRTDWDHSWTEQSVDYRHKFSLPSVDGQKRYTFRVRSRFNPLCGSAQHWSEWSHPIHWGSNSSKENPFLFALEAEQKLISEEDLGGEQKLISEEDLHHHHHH
- measurement_protocol: SPR, captured mAb, 25C, dissociation pH 7.4
Exercise: for every item that follows, state its recorded 100 nM Ag Bound (RU).
Numbers only, in RU.

For each entry beneath this line, provide reported 100 nM Ag Bound (RU).
1. H4H12858P (antibody, human IgG4 S228P, kappa, V domains shown, anti-IL2Rgamma mAb expressed with human IgG4 Fc; also called REGN9433) VH: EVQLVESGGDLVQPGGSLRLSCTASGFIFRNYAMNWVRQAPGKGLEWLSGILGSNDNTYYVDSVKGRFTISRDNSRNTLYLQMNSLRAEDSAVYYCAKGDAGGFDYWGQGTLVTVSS VL: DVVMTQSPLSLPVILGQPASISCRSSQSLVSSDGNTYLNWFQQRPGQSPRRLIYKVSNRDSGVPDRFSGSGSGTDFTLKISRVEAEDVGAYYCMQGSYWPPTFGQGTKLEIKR
2. H4H13538P (antibody, human IgG4 S228P, kappa, V domains shown, anti-IL2Rgamma mAb expressed with human IgG4 Fc) VH: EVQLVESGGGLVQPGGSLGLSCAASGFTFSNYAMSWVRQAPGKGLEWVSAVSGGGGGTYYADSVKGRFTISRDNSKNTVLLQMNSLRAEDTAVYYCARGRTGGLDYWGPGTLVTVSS VL: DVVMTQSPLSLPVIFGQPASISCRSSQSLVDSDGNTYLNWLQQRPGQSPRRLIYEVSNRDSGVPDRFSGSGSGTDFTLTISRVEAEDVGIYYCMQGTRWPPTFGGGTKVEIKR

Reply:
1. 111
2. 94

Ask: So what does the record say about 100 nM Ag Bound (RU) for H4H13541P (antibody, human IgG4 S228P, kappa, V domains shown, anti-IL2Rgamma mAb expressed with human IgG4 Fc) VH: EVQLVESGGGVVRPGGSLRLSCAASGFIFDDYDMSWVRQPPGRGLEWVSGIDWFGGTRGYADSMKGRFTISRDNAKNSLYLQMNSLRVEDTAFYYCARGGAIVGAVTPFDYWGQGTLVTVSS VL: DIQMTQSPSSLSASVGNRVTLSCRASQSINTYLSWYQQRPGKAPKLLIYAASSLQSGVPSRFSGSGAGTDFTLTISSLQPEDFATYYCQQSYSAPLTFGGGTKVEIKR ?
Reply: 80
